target: UniProt P51639; assay: determination of HMG-CoA reductase enzyme activity (rat liver enzyme preparation); relative inhibitory potency vs mevinolin; conditions: relative inhibitory potency from IC50 values; IC50 of reference mevinolin set at 1; 20 min preincubation, 60 min at 37° C.
Sequence (P51639 whole entry): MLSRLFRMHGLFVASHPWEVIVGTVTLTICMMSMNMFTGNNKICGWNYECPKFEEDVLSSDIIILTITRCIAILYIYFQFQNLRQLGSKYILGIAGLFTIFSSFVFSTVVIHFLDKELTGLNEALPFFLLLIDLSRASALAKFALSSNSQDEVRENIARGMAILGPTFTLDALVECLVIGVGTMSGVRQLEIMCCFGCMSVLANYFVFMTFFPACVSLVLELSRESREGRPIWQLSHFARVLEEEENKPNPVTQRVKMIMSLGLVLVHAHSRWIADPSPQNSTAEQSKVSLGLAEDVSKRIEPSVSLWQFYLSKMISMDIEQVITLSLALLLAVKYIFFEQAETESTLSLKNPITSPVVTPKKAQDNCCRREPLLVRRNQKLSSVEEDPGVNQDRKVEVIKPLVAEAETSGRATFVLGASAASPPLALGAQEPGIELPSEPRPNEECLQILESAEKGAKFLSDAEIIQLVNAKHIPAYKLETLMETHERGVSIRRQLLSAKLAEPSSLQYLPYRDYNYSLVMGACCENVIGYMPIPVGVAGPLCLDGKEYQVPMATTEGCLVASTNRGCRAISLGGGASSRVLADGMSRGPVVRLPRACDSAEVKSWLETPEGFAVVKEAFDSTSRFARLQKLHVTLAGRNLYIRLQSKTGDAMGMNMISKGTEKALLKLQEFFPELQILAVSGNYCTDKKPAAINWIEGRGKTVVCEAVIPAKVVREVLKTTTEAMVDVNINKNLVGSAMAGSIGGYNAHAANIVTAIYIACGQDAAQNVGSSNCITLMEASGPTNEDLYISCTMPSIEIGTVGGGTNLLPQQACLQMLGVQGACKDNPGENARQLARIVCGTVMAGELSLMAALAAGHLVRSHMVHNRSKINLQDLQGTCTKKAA
Measured Attribute: Rel. Activity (Mevinolin = 1)

Example cases with answers are listed next.
CCC(C)(C)C(=O)OCc1c(C(C)C)nc(C(C)C)c(/C=C/[C@@H](O)C[C@@H](O)CC(=O)OC)c1-c1ccc(F)cc1 (relative stereo) yielded Rel. Activity (Mevinolin = 1) of 30

COC(=O)C[C@H](O)C[C@H](O)/C=C/c1c(C(C)C)nc(C(C)C)c(COCc2ccccc2)c1-c1ccc(F)cc1 (relative stereo) yielded Rel. Activity (Mevinolin = 1) of 20

COC(=O)C[C@H](O)C[C@H](O)/C=C/c1c(C(C)C)nc(C(C)C)c(COC(C)=O)c1-c1ccc(F)cc1 (relative stereo) yielded Rel. Activity (Mevinolin = 1) of 17

COC(=O)C[C@H](O)C[C@H](O)/C=C/c1c(C(C)C)nc(C(C)C)c(-c2ccccc2)c1-c1ccc(F)cc1 (relative stereo) yielded Rel. Activity (Mevinolin = 1) of 20

COC(=O)C[C@H](O)C[C@H](O)/C=C/c1c(C(C)C)nc(C(C)C)c(CN2CCOCC2)c1-c1ccc(F)cc1 (relative stereo) yielded Rel. Activity (Mevinolin = 1) of 4

COCc1c(C2CC2)nc(C(C)C)c(/C=C/[C@@H](O)C[C@@H](O)CC(=O)OC)c1-c1ccc(F)cc1 (relative stereo) yielded Rel. Activity (Mevinolin = 1) of 20

(A) COC(=O)C[C@H](O)C[C@H](O)/C=C/c1c(-c2ccc(F)cc2)nc(C)c(C#N)c1C(C)C (relative stereo)
(B) CCOC(=O)c1c(C(C)C)nc(C(C)C)c(/C=C/[C@@H](O)C[C@@H](O)CC(=O)OC)c1-c1ccc(F)cc1 (relative stereo)
(C) COC(=O)C[C@H](O)C[C@H](O)/C=C/c1c(C(C)C)nc(C(C)C)c(COc2ccccc2)c1-c1ccc(F)cc1 (relative stereo)
(D) COC(=O)C[C@H](O)C[C@H](O)/C=C/c1c(C(C)C)nc(C(C)C)c(CSCc2ccccc2)c1-c1ccc(F)cc1 (relative stereo)
Sort ascending by Rel. Activity (Mevinolin = 1). List the labels in the requested order.
D, C, A, B
